Test system: Leishmania braziliensis
Experiment: Antileishmanial activity against Leishmania (Viannia) braziliensis HMOM/COL/88/UA301-EGFP intracellular amastigotes infected in human U937 cells after 72 hrs by flow cytometric analysis
Format: functional, organism-based
Settings: HMOM/COL/88/UA301, U-937, 72 h
pEC50: −log10 of the molar value.
Label scheme for pEC50: lower than 5 is Condition not met, 5 and above is Condition met.

input_smiles	classification
CCOC(=O)[C@]1(C)CCC[C@@]2(C)[C@@H]3CC[C@@]4(C)C[C@]3(CC[C@@H]21)CC4=O	Condition not met
C[C@@H]1[C@H](O)[C@@H](C)/C=C/C=C/C=C/C=C/C=C/C=C/C=C/[C@H](O[C@@H]2O[C@H](C)[C@@H](O)[C@H](N)[C@@H]2O)C[C@@H]2O[C@](O)(C[C@@H](O)C[C@@H](O)[C@H](O)CC[C@@H](O)C[C@@H](O)CC(=O)O[C@H]1C)C[C@H](O)[C@H]2C(=O)O	Condition met
C[C@@]12CC[C@@H]3[C@@](CC[C@@H]4[C@](C)(CO)CCC[C@]43C)(CC1)C2	Condition not met
C[C@@]12CC[C@@H]3[C@@](CC[C@H]4[C@@]3(C)CCC[C@@]4(C)C(=O)O)(CC1=O)C2	Condition not met
